Below is a list of entries, each paired with its recorded viability, T/C value.
tested on: 233499-124-R-J3-PDC spheroids with HUVEC/MSC, viability; assay: Anticancer human tumor 233499-124-R-J3-PDC patient-derived colon adenocarcinoma cell line growth inhibition [PI3K]; details: second compound 0.0316 µM; first compound 3.16 µM; active compounds read low;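 also: spheroids exposed to agents for seven days before readout; percent viability relative to DMSO vehicle control taken as 100%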
Report the value in % with no unit label.

Solved cases below.
compound: Cn1nccc1Nc1nccc(-c2ccn(C(CO)c3ccc(Cl)c(F)c3)c(=O)c2)n1 (stereo not drawn) + CC(Nc1ccc2c(c1)OCCn1cc(N3C(=O)OCC3C(F)F)nc1-2)C(N)=O
viability, T/C / %: 79.3
//
compound: C#Cc1c(F)ccc2cc(O)cc(-c3ncc4c(N5CC6CCC(C5)N6)nc(OCC56CCCN5CC(F)C6)nc4c3F)c12 (stereo not drawn) + Cc1nc(NC(=O)N2CCCC2C(N)=O)sc1-c1ccnc(C(C)(C)C(F)(F)F)c1
viability, T/C / %: 81.2

Attention now turns to another entry.
QUERY: # query: viability, T/C | item CNC(=O)c1ccc(N2C(=S)N(c3ccc(C#N)c(C(F)(F)F)c3)C(=O)C2(C)C)cc1F + CC(Nc1ncnc2nc[nH]c12)c1cc2cccc(Cl)c2c(=O)n1-c1ccccc1 | system: 233499-124-R-J3-PDC spheroids with HUVEC/MSC, viability;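 also: spheroids exposed to agents for seven days before readout; percent viability relative to DMSO vehicle control taken as 100%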
RESULT: 79.7
